Molecular target: S. pyogenes SKKanGAS, kanamycin survival, BacTiterGlo, 6 h
Assay: S. pyogenes SKKanGAS kanamycin growth inhibitors – SKKanGAS strain, luminescence, dose confirmation, streptokinase promoter inhibitor project, dose response (AID 1902);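 active means EC50 no more than a set limit of log units above the highest dose; inactive means the rest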;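 further: lower survival reflects blocked streptokinase promoter driving kanamycin resistance gene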
Reply using exactly one outcome from active, inactive

Take a look at these entries with their results.
Fc1ccccc1CNc1cc(Cl)cc(Cl)c1; active
CC/C(=C\C=C\[C@@H]1C=C[C@@H]2CCC[C@H]2[C@@H]1C(=O)c1ccc[nH]1)[C@@H]1O[C@@H]([C@@H](C)C(=O)O)CC[C@@H]1C; active
O=C(CSC(=S)N1CCCCC1)Nc1nc(-c2ccccc2)c(-c2ccccc2)o1; active

input: Look up the recorded call for c1ccc(CNc2nc(-c3ccccn3)nc3ccccc23)cc1 in this test.
output: active

input: Which outcome was entered for the compound Nc1nc(NCCOCCO)nc(N2CCCCCC2)c1[N+](=O)[O-] in this test?
output: active

input: Which result was noted for this compound in the test: Cc1ccc(NC(=O)c2cccc(OCc3c(C)noc3C)c2)cc1S(=O)(=O)Nc1ccccc1Cl
output: active

====

Target: S. pyogenes SKKanGAS, kanamycin survival, BacTiterGlo, 6 h
Experiment: S. pyogenes SKKanGAS kanamycin growth inhibitors – SKKanGAS strain, luminescence, dose confirmation, streptokinase promoter inhibitor project, dose response (AID 1902)
EXPERIMENTAL_ENDPOINT: EC50

O=[N+]([O-])c1ccc(O)c(/C=N/Nc2ccc(Cl)nn2)c1; 0.252 µM

input: Quick one: EC50 for CCCCC(=O)O[C@H]1CC[C@H]2[C@@H]3CCc4cc(O)ccc4[C@H]3CC[C@]12C ?
output: 3.83 µM

input: May I ask what EC50 has been recorded for C/C(=N\NC(=O)c1ccc(-c2ccccc2)cc1)C1C(=O)c2ccccc2C1=O ?
output: 1.1 µM

input: Quick check: EC50 of Oc1c(Cl)cc(Cl)c2c1NCCC2 ?
output: 5.37 µM

input: What does the record list as EC50 for CS(=O)(=O)c1ccc2nc(NC(=O)c3ccc(NS(=O)(=O)c4ccc(F)c(F)c4)cc3)sc2c1 ?
output: 0.622 µM

====

Target: S. pyogenes SKKanGAS, kanamycin survival, BacTiterGlo, 6 h
Assay: S. pyogenes SKKanGAS kanamycin growth inhibitors – SKKanGAS strain, luminescence, dose confirmation, streptokinase promoter inhibitor project, dose response (AID 1902)
Active and inactive are the calls of the source.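 Rule for the calls: active = EC50 no more than a set limit of log units above the highest dose; inactive = the rest.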
The reply should name one outcome from 1 for active, -1 for inactive

Examples from the recorded data:
COC(=O)[C@@]12CCCN1[C@H](c1ccc(-c3cccc(Cl)c3)c(OC)c1)[C@H]1C(=O)N(C)C(=O)[C@H]12; -1
Cc1cccc(-c2oc3ccccc3c2-c2ccc3c(c2)OCO3)c1; 1
Cc1c(NCc2cc(Cl)cc(Cl)c2O)c(=O)n(-c2ccccc2)n1C; 1
CC(C)(O)c1[nH]c2cc(F)ccc2c1C(C)(C)O; 1
CCOc1ccc(C(=O)NC(=S)Nc2ccc(NC(=O)CC)cc2)cc1[N+](=O)[O-]; 1

input: For O=C1CCCc2oc3c(cc(NS(=O)(=O)c4ccc5c6c(cccc46)C(=O)N5)c4ccccc43)c21 , what call appears in the results of this test?
output: 1

====

Molecular target: S. pyogenes SKKanGAS, kanamycin survival, BacTiterGlo, 6 h
Assay: S. pyogenes SKKanGAS kanamycin growth inhibitors – SKKanGAS strain, luminescence, dose confirmation, streptokinase promoter inhibitor project, dose response (AID 1902)
Active and inactive are the calls of the source.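 Rule for the calls: active = EC50 no more than a set limit of log units above the highest dose; inactive = the rest.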
Recorded EC50 for the following compounds

Worked examples, 5 compounds total:
O=C(CSc1ccc(Cl)cc1)NC1=NN(c2ccccc2)C(=O)C1; 5.54 µM
O=C1N/C(=N\c2ccccn2)SC1Cc1ccc(Cl)cc1 (configuration not stated); > 15 µM (inactive)
Cc1ccc(CN2CC(C(=O)Nc3nnc(SCc4c(Cl)cccc4Cl)s3)CC2=O)cc1 (configuration not stated); 4.87 µM
N#Cc1c(NC(=S)NC(=O)C2CCCC2)sc2c1CCCCC2; 6.33 µM
CCCCCCCCCCC(=O)NNC(=O)c1c(O)c2ccccc2n(CC)c1=O; 0.185 µM

input: Find the recorded EC50 belonging to O=C(CN1c2ccccc2Sc2ccccc21)NNC(=O)Nc1cccc(Cl)c1 and report it.
output: 4.97 µM

input: Using the record for O=c1c2cc(Br)ccc2nc(-c2ccc(Cl)cc2)n1O , report its EC50.
output: 1.07 µM

input: // query EC50 value for entry Cc1ccc(C(C)C)cc1NC(=O)Nc1ccc([N+](=O)[O-])cc1
output: 3.75 µM

input: Param item = Cc1c(C(=O)NNC(=S)NCc2ccc(Cl)cc2)oc2ccccc12 ; retrieve measured EC50.
output: 2.17 µM

input: For the compound COc1cc(/C=C/C(=O)OCC(=O)c2c(N)n(C)c(=O)n(C)c2=O)ccc1OCC#N , what EC50 is on record?
output: 5.45 µM

====

Biological target: S. pyogenes SKKanGAS, kanamycin survival, BacTiterGlo, 6 h
Test: S. pyogenes SKKanGAS kanamycin growth inhibitors – SKKanGAS strain, luminescence, dose confirmation, streptokinase promoter inhibitor project, dose response (AID 1902);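 further: lower survival reflects blocked streptokinase promoter driving kanamycin resistance gene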
The source made the active and inactive calls.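 How the source made its calls: active means EC50 no more than a set limit of log units above the highest dose; inactive means the rest.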
Entry note: the call must match one of active, inactive

# count of solved cases: 5
COc1cccc(C(=O)Nc2nnc(-c3cccs3)o2)c1; active
CCOC(=O)c1c(-c2ccc(C)cc2)csc1NC(=O)CCN1CCOCC1; inactive
Cc1cccc(NC(c2ccc(C)s2)c2ccc3ccc(C)nc3c2O)n1 (stereo unspecified); active
Nc1ccc2c(c1)C(=O)C(=O)c1ccccc1-2; active
O=C(O)CN1C(=O)/C(=C\c2ccccc2OCc2ccc(Cl)cc2Cl)SC1=S; active

input: State the result this test recorded for COc1cccc(/C=C/C(=O)OCC(=O)Nc2nnc(-c3ccccc3)o2)c1 .
output: active

input: Each compound tested received a call. Report the one for CN(C(=S)NC(=O)c1ccccc1)C1CCCCC1 .
output: inactive

input: Short answer needed: outcome of this test for CC(C)(C)c1cc(C(=O)Nc2ccc(F)cc2)n(Cc2ccc(F)cc2)n1 ?
output: active

input: What did the test return for COc1ccc2c(c1)C(=NNc1ccc(C(=O)O)cc1)c1cc(OC)ccc1-2 ?
output: active

input: Field: outcome | Entry: CC(C)c1ccc(NC(=O)c2cc(S(=O)(=O)NCC3COc4ccccc4O3)ccc2F)cc1 (stereo unspecified)
output: active

input: For O=C(CSc1ccc(-c2ccc(Cl)cc2)nn1)NC1CCCC1 , which call appears in the assay record?
output: inactive

====

Molecular target: S. pyogenes SKKanGAS, kanamycin survival, BacTiterGlo, 6 h
Test: S. pyogenes SKKanGAS kanamycin growth inhibitors – SKKanGAS strain, luminescence, dose confirmation, streptokinase promoter inhibitor project, dose response (AID 1902);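 further: lower survival reflects blocked streptokinase promoter driving kanamycin resistance gene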
EXPERIMENTAL_ENDPOINT: pEC50
A value of pEC50 is the negative decimal logarithm of a concentration given in moles per litre.

For orientation, consider the following solved cases.
O=C(Cc1csc(NC(=O)Nc2cccc(Cl)c2)n1)NCc1cccnc1; 5.36
COc1ccc(C(=O)c2ccc(N3CCN(C4CC(=O)NC4=O)CC3)cc2)cc1F (stereo not given); 5.56
Cc1ccc(C)c(-c2nnc(NC(=O)CCS(=O)(=O)c3ccccc3)o2)c1; 5.06
CCN1CCN(Cc2ccc(NC(=O)c3ccc(C)c(/C=C/c4cnc(Nc5cc(N6CCNCC6)nc(C)n5)cn4)c3)cc2C(F)(F)F)CC1; 5.08
O=C(CC1CC2CCC1C2)Nc1nc(-c2ccccn2)cs1 (stereo not given); 5.62
CCOC(=O)c1nc(Nc2ccc(Nc3ccccc3)cc2)c2ccccc2n1; 5.01

input: # get_value(readout= pEC50, system= S. pyogenes SKKanGAS, kanamycin survival, BacTiterGlo, 6 h) for COc1ccc(NC(=O)c2ccc3c(c2)NC(=O)CS3)cc1S(=O)(=O)Nc1ccc(Br)cc1
output: 5.47

input: What is its pEC50 for S. pyogenes SKKanGAS, kanamycin survival, BacTiterGlo, 6 h? Entry: C=C(CC1([C@@H](NP(=O)(c2ccccc2)c2ccccc2)[C@H]2C[C@@H]2CCCC)CC1)c1ccccc1
output: 5.44

input: Give pEC50 (S. pyogenes SKKanGAS, kanamycin survival, BacTiterGlo, 6 h) of the following compound: O=[N+]([O-])c1ccc(O)c(/C=N/Nc2nc3ccccc3[nH]2)c1
output: 6.23

input: What value of pEC50 on S. pyogenes SKKanGAS, kanamycin survival, BacTiterGlo, 6 h does COc1ccc(NS(=O)(=O)c2ccc3nc(COc4cccc5ccccc45)[nH]c3c2)cc1 have?
output: 5.22

====

Here the recorded EC50 is given for each entry.
Biological target: S. pyogenes SKKanGAS, kanamycin survival, BacTiterGlo, 6 h
Test: S. pyogenes SKKanGAS kanamycin growth inhibitors – SKKanGAS strain, luminescence, dose confirmation, streptokinase promoter inhibitor project, dose response (AID 1902);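 further: lower survival reflects blocked streptokinase promoter driving kanamycin resistance gene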
Calls of active or inactive are those of the source.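 How the source made its calls: active means EC50 no more than a set limit of log units above the highest dose; inactive means the rest.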

S=C(NCCSCc1ccc(Cl)c(Cl)c1)Nc1ccccc1; 3.71 µM

Continue with the next molecule.
input: EC50 lookup needed for Cc1ccccc1NC(=O)C(=O)NC(C)CCc1ccccc1 (stereo not drawn) , thanks.
output: > 15 µM (inactive)

The values you see were collected from PubChem BioAssay AID1902.
